Listed next: entries and their corresponding pEC50.
Molecular target: human APJ receptor (Homo sapiens (Human))
Sequence (P35414 whole entry): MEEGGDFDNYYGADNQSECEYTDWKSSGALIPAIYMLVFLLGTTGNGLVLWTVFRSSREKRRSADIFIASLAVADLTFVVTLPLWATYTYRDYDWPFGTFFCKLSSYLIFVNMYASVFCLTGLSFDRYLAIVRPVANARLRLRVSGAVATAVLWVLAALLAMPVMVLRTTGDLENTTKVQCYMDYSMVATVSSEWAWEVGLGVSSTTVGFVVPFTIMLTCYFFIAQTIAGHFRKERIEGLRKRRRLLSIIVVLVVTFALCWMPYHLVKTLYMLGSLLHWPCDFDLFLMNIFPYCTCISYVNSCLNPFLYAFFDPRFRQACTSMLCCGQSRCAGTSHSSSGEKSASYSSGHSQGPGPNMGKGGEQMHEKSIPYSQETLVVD
Assay: biochemical
Conditions: [35S]GTPγS binding, CHO membranes expressing human APJ receptor; read-out: Activity hAPJ SPA EC50 IP
pEC50: −log10 of the molar value.
reported endpoint: pEC50

[[record]]
smiles_record = "COc1cccc(OC)c1-n1c(NS(=O)(=O)CCc2ccc(Cl)cc2)nnc1-c1nccs1"
subject_of_test = "human APJ receptor (Homo sapiens (Human))"
measurement_qualifier = "="
obs_value = 7.46

[[record]]
smiles_record = "O=S(=O)(Cc1ccc(Cl)cc1)Nc1nnc(-c2cccs2)n1-c1ccccc1C(F)(F)F"
subject_of_test = "human APJ receptor (Homo sapiens (Human))"
measurement_qualifier = "<"
obs_value = 4.90

[[record]]
smiles_record = "COc1ccc(Cl)cc1-n1c(NS(=O)(=O)CCc2ccc(F)cc2)nnc1-c1cccs1"
subject_of_test = "human APJ receptor (Homo sapiens (Human))"
measurement_qualifier = "="
obs_value = 6.71

[[record]]
smiles_record = "COc1cccc(OC)c1-n1c(NS(=O)(=O)[C@@H](C)[C@H](OC)c2ncc(C)cn2)nnc1-c1c(C)nc2ccccn12"
subject_of_test = "human APJ receptor (Homo sapiens (Human))"
measurement_qualifier = "="
obs_value = 6.03


---

Molecular target: UniProt P35414
Assay: biochemical
Assay type: biochemical
Conditions: [35S]GTPγS binding, CHO membranes expressing human APJ receptor; read-out: Activity hAPJ SPA EC50 IP
pEC50: −log10 of the molar value.
reported endpoint: pEC50

[[record]]
compound = "COc1cccc(OC)c1-n1c(NS(=O)(=O)[C@@H](C)[C@H](OC)c2ncc(C)cn2)nnc1-c1n[nH]c2ccc(F)cc12 [Example 437.0]"
reported_endpoint = "pEC50"
obs_value = 6.72

[[record]]
compound = "COc1cccc(OC)c1-n1c(NS(=O)(=O)C[C@@H](O)c2ccc(F)cc2F)nnc1-c1ccn(C)n1 (racemic) [Example 116.0]"
reported_endpoint = "pEC50"
obs_value = 8.59

[[record]]
compound = "C=CCO[C@@H](c1ncc(F)cn1)[C@@H](C)S(=O)(=O)Nc1nnc(-c2nc(C)cs2)n1-c1c(OC)cccc1OC (single isomer, unassigned) [Example 168.0]"
reported_endpoint = "pEC50"
obs_value = 7.52

[[record]]
compound = "COc1cccc(OC)c1-n1c(NS(=O)(=O)[C@@H](C)[C@@H](OC(C)C)c2ncc(F)cn2)nnc1-c1cnn2c1CCC2 [Example 482.0]"
reported_endpoint = "pEC50"
obs_value = 9.42

[[record]]
compound = "COc1ccc(S(C)(=O)=O)cc1-n1c(NS(=O)(=O)CCc2ccc(Cl)cc2)nnc1-c1cccs1 [Example 312.0]"
reported_endpoint = "pEC50"
obs_value = 7.12

[[record]]
compound = "COc1cccc(OC)c1-n1c(NS(=O)(=O)[C@@H](C)[C@H](O)c2cnc(C)cn2)nnc1-c1cc(C)[nH]n1 [Example 347.0]"
reported_endpoint = "pEC50"
obs_value = 8.42


---

Biological target: human APJ receptor (Homo sapiens (Human))
Assay: biochemical
Details: [35S]GTPγS binding, CHO membranes expressing human APJ receptor; read-out: Activity hAPJ SPA EC50 IP
reported endpoint: EC50 (nM)

[[record]]
compound = "COc1ncnc(OC)c1-n1c(NS(=O)(=O)[C@@H](C)[C@H](C)c2ncc(C)cn2)nnc1-c1nc(C)cs1"
obs_value = 2.6

[[record]]
compound = "COc1cccc(OC)c1-n1c(NS(=O)(=O)CC[C@@H](O)C2CCCC2)nnc1-c1cccs1 (mixture of isomers)"
obs_value = 3

[[record]]
compound = "CNC(=O)n1ccc(-c2nnc(NS(=O)(=O)[C@@H](C)Cc3ncc(F)cn3)n2-c2c(OC)cccc2OC)n1 (single isomer, unassigned) [Example 74.0]"
obs_value = 22

